- Test system: 786-0 renal
- METHOD NOTES: NCI-60 one-dose screen, 48 h (100 = growth as untreated, 0 = no growth, -100 = all killed)
- CONDITION SET: 10 µM unless noted
Compounds without any hit were thinned out: in the full panel of roughly 83,000, 20% have a hit.
Short version: growth at least 80% is label 1, less is label 0.

- COMPOUND: "N#C/C(=C\\c1c(-c2ccccc2)[nH]c2ccccc12)S(=O)(=O)c1ccccc1"
  ASSIGNED CATEGORY: "label 0"

[Q] Quick check: does Cc1ccc(CN2CCC(C(=O)Nc3ccc(-c4cc5ccccc5[nH]4)cc3)CC2)o1 have growth greater than or equal to 80%?
[A] label 0

[Q] Also COc1ccc(C2=NN(/C=C3\SC(=O)NC3=Nc3ccc(F)cc3)C(c3ccc(F)cc3)C2)cc1 (stereo not given) ?
[A] label 1

[Q] Also Cc1ccc(S(=O)c2ccc([N+](=O)[O-])c3nonc23)cc1 (stereo not given) ?
[A] label 1

[Q] Also C#CCn1cc(C=C2C(=O)NC(=O)NC2=O)c2cc(Cl)ccc21 ?
[A] label 1

[Q] Also COc1ccc(CSc2nnc(SCC(=O)Nc3ccc(Cl)cc3)s2)cc1 ?
[A] label 0

[Q] Also CN(O)c1nc(N(C)O)nc(N2CCOCC2)n1 ?
[A] label 0

[Q] Also CCC1=C[C@]2(C3CC(=O)N(c4ccccc4)C3=O)CC(C(C)(C)C)C[C@@H]2[C@@H]2C(=O)N(c3ccccc3)C(=O)[C@H]12 (stereo not given in full) ?
[A] label 1

[Q] Also Nc1ccn(C2O[C@H](CO)[C@@H](O)[C@H]2O)c(=O)n1 (stereo not given in full) ?
[A] label 1
